- protocolDescription: in vitro
- testConditions: human, Caco-2, pH 6.5
measurementType: Papp B→A at 2 h, 10 µM (nm/s)
One number for each entry, in nm/s.

Worked examples, 4 molecules total:
Record CNc1nccc(CN(CC2CCNCC2)S(=O)(=O)c2ccc(S(=O)(=O)N(Cc3ccc(Cl)cc3)C3CCCC3)cc2)n1 [Compound 16] , field Papp B→A at 2 h, 10 µM: 137

Query CNc1nccc(CN([C@H]2CC[C@H](N)CC2)S(=O)(=O)c2ccc(S(=O)(=O)N(Cc3ccc(Cl)cc3)C3CCCC3)cc2)n1 [Compound 19] yields Papp B→A at 2 h, 10 µM of 27

Entry Nc1cc(CN(CC2CCNCC2)S(=O)(=O)c2ccc(S(=O)(=O)N(Cc3ccc(Cl)cc3)C3CCCC3)cc2)ccc1C(=O)O [Compound 22] ; Papp B→A at 2 h, 10 µM = 6

Please fill in: Papp B→A at 2 h, 10 µM reported for O=S(=O)(c1ccc(S(=O)(=O)N(Cc2ccc(Cl)cc2)C2CCCC2)cc1)N(Cc1ccccc1)CC1CCNCC1 [Compound 44] = 6

The record that follows has no Papp B→A at 2 h, 10 µM shown yet.
# Papp B→A at 2 h, 10 µM (molecule: CNc1cc(CN(CC2CCNCC2)S(=O)(=O)c2ccc(S(=O)(=O)N(Cc3ccc(Cl)cc3)C3CCCC3)cc2)ccc1C(=O)O [Compound 21] ) is 5

* * *

- studyTarget: UniProtKB O43924
- protocolDescription: Fluorescence polarization competition binding assay: displacement titration of labeled Atorvastatin probe for KD
- testConditions: fluorescence polarization assay; activity classes; read-out: KD
Task for the reader: assign each of the following molecules its reported Kd.

Solved cases below.
Reported Kd for CCOC(=O)c1ccccc1CN(CC1CCOCC1)S(=O)(=O)c1ccc(S(=O)(=O)N(Cc2ccc(Cl)cc2)C2CCCC2)cc1 [Compound 40] was 100 to 1000 nM

Short answer for CN1CCC(CN(Cc2ccccc2)S(=O)(=O)c2ccc(S(=O)(=O)N(Cc3ccc(Cl)cc3)C3CCCC3)cc2)CC1 [Compound 6] : Kd was 1 to 30 nM

Briefly, Kd measured for CCN(Cc1ccccc1)S(=O)(=O)c1ccc(S(=O)(=O)N(Cc2ccccc2)Cc2ccccn2)cc1 [Compound 48] : 1 to 30 nM

Field Kd (entry CCOc1ccc(CN(Cc2ccc(OC)cc2)S(=O)(=O)c2ccc(S(=O)(=O)N3CCCCC3)cc2)cc1 [Compound 85] ) reads 100 to 1000 nM

Provide each entry's Kd from the list below.
1. O=S(=O)(c1ccc(S(=O)(=O)N(Cc2ccc(Cl)cc2)C2CCCC2)cc1)N(Cc1cncnc1)CC1CCNCC1 [Compound 27]
2. Cc1ccc(CN(C2CCCC2)S(=O)(=O)c2ccc(S(=O)(=O)N(Cc3ccccn3)c3sccc3C)cc2)cc1Cl [Compound 43]
3. O=S(=O)(c1ccc(S(=O)(=O)N(Cc2ccc(Cl)cc2)C2CCCC2)cc1)N(Cc1cnccn1)CC1CCNCC1 [Compound 11]

1: 1 to 30 nM; 2: 100 to 1000 nM; 3: 1 to 30 nM

* * *

- studyTarget: PDEδ (Homo sapiens (Human))
- protocolDescription: Fluorescence polarization competition binding assay: displacement titration of labeled Atorvastatin probe for KD
- testConditions: fluorescence polarization assay; activity classes; read-out: KD
Consider the following compounds; for each one, report its Kd.

Worked examples, 3 compounds total:
Value of Kd reported for the compound Nc1cc(CN(CC2CCNCC2)S(=O)(=O)c2ccc(S(=O)(=O)N(Cc3ccc(Cl)cc3)C3CCCC3)cc2)ccc1C(=O)O [Compound 22] is 1 to 30 nM

Looking up O=S(=O)(NCc1ccc(O)cc1)c1ccc(S(=O)(=O)N(Cc2ccc(Cl)cc2)C2CCCC2)cc1 [Compound 14] , I see its Kd listed as 30 to 100 nM

Short answer for CC(C)(C)c1cc(Br)cc(CN(C2CCCC2)S(=O)(=O)c2ccc(S(=O)(=O)N(Cc3ccccc3)CC3CCNCC3)cc2)c1 [Compound 24] : Kd was 30 to 100 nM

Next:
Kd in this record for CCOc1ccc(CN(CC2CCCO2)S(=O)(=O)c2ccc(S(=O)(=O)N3CCCCC3)cc2)cc1 (stereo not shown) [Compound 79] : > 1000 nM
